Cited source for all entries: PubChem BioAssay AID1845219

test system: SYO-1 tumor spheroids, viability % test/control; assay: Anticancer human tumor SYO-1 cell line growth inhibition; conditions: second compound 0.0949 µM; first compound 3.16 µM; stronger effect = lower value; spheroids with HUVEC and MSC;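 note: spheroids exposed to agents for 7 days before viability read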;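 for viability, T/C: 100% = DMSO vehicle control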
parameter: viability, T/C (%)
Report the figure in % without appending any unit label.

Entry COc1cc(C)[nH]c(=O)c1CN1CCc2c(Cl)cc(C(OC)C3COC3)c(Cl)c2C1=O (stereo not drawn) + CC[C@@]1(O)C(=O)OCc2c1cc1n(c2=O)Cc2cc3c(CN(C)C)c(O)ccc3nc2-1 , system SYO-1 tumor spheroids, viability % test/control: what viability, T/C was measured? 1.72

How about [2H]c1nc(C)nc([2H])c1-c1cc(NC[C@@H](C)c2cccc3c(C(=O)NC)ccnc23)ncn1 + CC[C@@]1(O)C(=O)OCc2c1cc1n(c2=O)Cc2cc3c(CN(C)C)c(O)ccc3nc2-1 ? 1.9

How about CC(C)n1c(=O)n(C)c2cnc3cc(F)c(-c4ccc(OCCCN5CCCCC5)nc4)cc3c21 + CC[C@@]1(O)C(=O)OCc2c1cc1n(c2=O)Cc2cc3c(CN(C)C)c(O)ccc3nc2-1 ? 1.18

----------
system: SYO-1 tumor spheroids, viability % test/control; assay: Anticancer human tumor SYO-1 cell line growth inhibition; details: curve of first compound; second compound 31.6 µM; spheroids with HUVEC and MSC;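 note: spheroids exposed to agents for 7 days before viability read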
Exercise: state measured pIC50 for each of the molecules provided.
Give only the number. pIC50 is defined as minus log10 of concentration in molar units.

Query (molecule): COc1ccc([C@@H](O)c2cc(-c3ncnc4cc(N5CCOCC5)ccc34)c(F)cc2Cl)nn1 + Cn1nnc2c(C(N)=O)ncn2c1=O ; field requested: pIC50 5.39

How about CNCc1ccc(-c2cc(-c3nc(-c4ccc(S(=O)(=O)C(C)C)cc4)cnc3N)on2)cc1 + Cn1nnc2c(C(N)=O)ncn2c1=O ? 7.09

How about CC(C)n1c(=O)n(C)c2cnc3cc(F)c(-c4ccc(OCCCN5CCCCC5)nc4)cc3c21 + Cn1nnc2c(C(N)=O)ncn2c1=O ? 5.10

----------
system: SYO-1 tumor spheroids, viability % test/control; assay: Anticancer human tumor SYO-1 cell line growth inhibition; settings: second compound 3.16 µM; first compound 0.1 µM; stronger effect = lower value; spheroids with HUVEC and MSC;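 note: spheroids exposed to agents for 7 days before viability read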;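 for viability, T/C: 100% = DMSO vehicle control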
Exercise: state measured viability, T/C for each of the compounds provided.
Report the figure in % without appending any unit label.

Query (compound): COc1cc(C)[nH]c(=O)c1CN1CCc2c(Cl)cc(C(OC)C3COC3)c(Cl)c2C1=O (stereo unspecified) + Cn1nnc2c(C(N)=O)ncn2c1=O ; field requested: viability, T/C 107

How about CC1COCCN1c1cc(-c2ccnn2C)c2ccnc(-c3ccn[nH]3)c2n1 (stereo unspecified) + Cn1nnc2c(C(N)=O)ncn2c1=O ? 4.75

How about [2H]c1nc(C)nc([2H])c1-c1cc(NC[C@@H](C)c2cccc3c(C(=O)NC)ccnc23)ncn1 + Cn1nnc2c(C(N)=O)ncn2c1=O ? 113

How about Cc1cc(C)c(CNC(=O)c2cc(-c3ccc(CN4CCOCC4)cc3)cc3c2cnn3C2CCCC2)c(=O)[nH]1 + Cn1nnc2c(C(N)=O)ncn2c1=O ? 106

How about CC(C)n1c(=O)n(C)c2cnc3cc(F)c(-c4ccc(OCCCN5CCCCC5)nc4)cc3c21 + Cn1nnc2c(C(N)=O)ncn2c1=O ? 104

How about COc1ccc([C@@H](O)c2cc(-c3ncnc4cc(N5CCOCC5)ccc34)c(F)cc2Cl)nn1 + Cn1nnc2c(C(N)=O)ncn2c1=O ? 106
